Entry source: ChEMBL document CHEMBL1125720

Experiment: Compound was evaluated for the plasma half-life to investigate its pharmacokinetic profile in dogs after intravenous administration.
Format: ADME, organism-based, Canis lupus familiaris
Conditions: dog
VALUE_TYPE: half-life
The answer should read as a number with its unit following.

# half-life lookup, item CCO/C(O)=C1\C(COCCO)=NC(C)=C(C(=O)OC)C1c1cccc(Cl)c1Cl (stereo unspecified)
7.3 h

* * *

Assay: Compound was evaluated for the volume of distribution to investigate its pharmacokinetic profile in dogs after intravenous administration.
Format: ADME, organism-based, Canis lupus familiaris
Conditions: dog, in vivo, read-out: Volume of distribution
VALUE_TYPE: Vd (L/kg)
Express the result in L/kg but write the number alone.

# Vd lookup, item CCO/C(O)=C1\C(COCCO)=NC(C)=C(C(=O)OC)C1c1cccc(Cl)c1Cl (stereo unspecified)
6
